system.name: γ-secretase (Homo sapiens, UniProt P49768)
assay.text: Aβ secretion by C99 cells (HEK293 stably expressing APP-C99), γ-secretase inhibitory effect, Aβ ELISA of culture supernatant
Assay type: cell-based
reported.conditions: HEK293, 24 h, Example 8; exposure 0.3 μmol/L, 24 h; read-out: Aβ [(1-40) + (1-42)] secretion rate of C99 cells
The reader will find reported activity at 0.3 µM values listed item by item below.
Please give a number only; it is taken to be in %.

Some entries whose results are on file:
CCCCNC(=O)C(CCSC)NC(=O)C(NC(=O)C(CC(C)C)CC(O)C(NC(=O)OC(C)(C)C)C(C)O)C(C)C (stereo not shown) [TLVM-7] :: 23
CSCCC(NC(=O)C(NC(=O)C(CC(C)C)CC(O)C(NC(=O)OC(C)(C)C)C(C)O)C(C)C)C(=O)NC(C)c1ccccc1 (stereo not shown) [TLVM-8] :: 7
CSCCC(NC(=O)C(NC(=O)C(CC(C)C)CC(O)C(NC(=O)OC(C)(C)C)C(C)O)C(C)C)C(=O)NCc1ccc(F)cc1 (stereo not shown) [TLVM-9] :: 15

# evaluate next
So what does the record say about activity at 0.3 µM for CSCCC(NC(=O)C(NC(=O)C(CC(C)C)CC(O)C(NC(=O)OC(C)(C)C)C(C)O)C(C)C)C(=O)NCc1ccccc1 (stereo not shown) [TLVM-5] ?
14

###

system.name: γ-secretase (Homo sapiens, UniProt P49768)
assay.text: Substrate specificity: FLAG-Aβ secretion by HEK293 cells transfected with FLAG APP C99, anti-FLAG immunoprecipitation/western blot
Type: cell-based
reported.conditions: 0.2 μmol/L
Text: […]
reported.metric: (i)/(ii) ratio, Aβ / β-Alcα secretion rates
Answer with a bare number; do not write a unit.

CSCCC(NC(=O)C(NC(=O)C(CC(C)C)CC(O)C(NC(=O)OC(C)(C)C)C(C)O)C(C)C)C(=O)NC(C)c1ccccc1 (stereo not drawn) :: 0.27
CCCCNC(=O)C(CCSC)NC(=O)C(NC(=O)C(CC(C)C)CC(O)C(NC(=O)OC(C)(C)C)C(C)O)C(C)C (stereo not drawn) :: 0.30
CSCCC(NC(=O)C(NC(=O)C(CC(C)C)CC(O)C(NC(=O)OC(C)(C)C)C(C)O)C(C)C)C(=O)NCc1ccccc1 (stereo not drawn) :: 0.29
CSCC[C@H](NC(=O)[C@@H](NC(=O)[C@H](CC(C)C)C[C@@H](O)[C@@H](NC(=O)OC(C)(C)C)[C@@H](C)O)c1ccccc1)C(=O)NCc1ccccc1 :: 0.12

So what does the record say about (i)/(ii) ratio, Aβ / β-Alcα secretion rates for C[C@H](NC(=O)Cc1cc(F)cc(F)c1)C(=O)N[C@H](C(=O)OC(C)(C)C)c1ccccc1 [DAPT, reference compound] ?
0.35

So what does the record say about (i)/(ii) ratio, Aβ / β-Alcα secretion rates for CSCCC(NC(=O)C(NC(=O)C(CC(C)C)CC(O)C(NC(=O)OC(C)(C)C)C(C)O)C(C)C)C(=O)NCc1ccc(F)cc1 (stereo not drawn) ?
0.27

###

System: C99 cells
assay.text: Cytotoxicity on C99 cells, cell viability by Cell Counting Kit-8
Assay type: cell-based, human
reported.conditions: exposure 3 μmol/L, 24 h
The reader will find reported Cell viability of C99 cells values listed item by item below.
Please give a number only; it is taken to be in %.

Some entries whose results are on file:
CSCCC(NC(=O)C(NC(=O)C(CC(C)C)CC(O)C(NC(=O)OC(C)(C)C)C(C)O)C(C)C)C(=O)NC(C)c1ccccc1 (centres unmarked) :: 101
CSCCC(NC(=O)C(NC(=O)C(CC(C)C)CC(O)C(NC(=O)OC(C)(C)C)C(C)O)C(C)C)C(=O)NCc1ccc(F)cc1 (centres unmarked) :: 106
CCCCNC(=O)C(CCSC)NC(=O)C(NC(=O)C(CC(C)C)CC(O)C(NC(=O)OC(C)(C)C)C(C)O)C(C)C (centres unmarked) :: 96
CC(C)C[C@H](NC(=O)[C@H](Cc1ccccc1)C[C@@H](O)[C@H](Cc1ccccc1)NC(=O)OC(C)(C)C)C(=O)N[C@@H](Cc1ccccc1)C(N)=O [L-685, 458, reference compound] :: 110

# evaluate next
So what does the record say about Cell viability of C99 cells for CSCCC(NC(=O)C(NC(=O)C(CC(C)C)CC(O)C(NC(=O)OC(C)(C)C)C(C)O)C(C)C)C(=O)NCc1ccccc1 (centres unmarked) ?
112

###

System: C99 cells
assay.text: Cytotoxicity on C99 cells, cell viability by Cell Counting Kit-8
Assay type: cell-based, human
reported.conditions: exposure 0.3 μmol/L, 24 h
reported.metric: Cell viability of C99 cells (%)
Please give a number only; it is taken to be in %.

CSCCC(NC(=O)C(NC(=O)C(CC(C)C)CC(O)C(NC(=O)OC(C)(C)C)C(C)O)C(C)C)C(=O)NCc1ccc(F)cc1 (centres unmarked) [TLVM-9] :: 104

So what does the record say about Cell viability of C99 cells for CCCCNC(=O)C(CCSC)NC(=O)C(NC(=O)C(CC(C)C)CC(O)C(NC(=O)OC(C)(C)C)C(C)O)C(C)C (centres unmarked) [TLVM-7] ?
92

So what does the record say about Cell viability of C99 cells for CC(C)C[C@H](NC(=O)[C@H](Cc1ccccc1)C[C@@H](O)[C@H](Cc1ccccc1)NC(=O)OC(C)(C)C)C(=O)N[C@@H](Cc1ccccc1)C(N)=O [L-685, 458, reference compound] ?
133

So what does the record say about Cell viability of C99 cells for CSCCC(NC(=O)C(NC(=O)C(CC(C)C)CC(O)C(NC(=O)OC(C)(C)C)C(C)O)C(C)C)C(=O)NC(C)c1ccccc1 (centres unmarked) [TLVM-8] ?
101

So what does the record say about Cell viability of C99 cells for CSCCC(NC(=O)C(NC(=O)C(CC(C)C)CC(O)C(NC(=O)OC(C)(C)C)C(C)O)C(C)C)C(=O)NCc1ccccc1 (centres unmarked) [TLVM-5] ?
102

###

system.name: γ-secretase (Homo sapiens, UniProt P49768)
assay.text: Aβ secretion by C99 cells (HEK293 stably expressing APP-C99), γ-secretase inhibitory effect, Aβ ELISA of culture supernatant
Assay type: cell-based
reported.conditions: HEK293, 24 h, Example 9; exposure 0.03 μmol/L; read-out: Aβ [(1-40) + (1-42)] secretion rate of C99 cells
The reader will find reported activity at 0.03 µM values listed item by item below.
Please give a number only; it is taken to be in %.

Some entries whose results are on file:
CSCCC(NC(=O)C(NC(=O)C(CC(C)C)CC(O)C(NC(=O)OC(C)(C)C)C(C)O)C(C)C)C(=O)NCc1ccccc1 (stereo not shown) :: 101
CSCCC(NC(=O)C(NC(=O)C(CC(C)C)CC(O)C(NC(=O)OC(C)(C)C)C(C)O)C(C)C)C(=O)NC(C)c1ccccc1 (stereo not shown) :: 54
CSCCC(NC(=O)C(NC(=O)C(CC(C)C)CC(O)C(NC(=O)OC(C)(C)C)C(C)O)C(C)C)C(=O)NCc1ccc(F)cc1 (stereo not shown) :: 94

# evaluate next
So what does the record say about activity at 0.03 µM for CCCCNC(=O)C(CCSC)NC(=O)C(NC(=O)C(CC(C)C)CC(O)C(NC(=O)OC(C)(C)C)C(C)O)C(C)C (stereo not shown) ?
126

###

Tested on: C99 cells
assay.text: Cytotoxicity on C99 cells, cell viability by Cell Counting Kit-8
Format: cell-based, human
reported.conditions: exposure 10 μmol/L, 24 h
reported.metric: Cell viability of C99 cells (%)
Please give a number only; it is taken to be in %.

So what does the record say about Cell viability of C99 cells for CC(C)C[C@H](NC(=O)[C@H](Cc1ccccc1)C[C@@H](O)[C@H](Cc1ccccc1)NC(=O)OC(C)(C)C)C(=O)N[C@@H](Cc1ccccc1)C(N)=O [L-685, 458, reference compound] ?
99

So what does the record say about Cell viability of C99 cells for CSCCC(NC(=O)C(NC(=O)C(CC(C)C)CC(O)C(NC(=O)OC(C)(C)C)C(C)O)C(C)C)C(=O)NC(C)c1ccccc1 (centres unmarked) ?
98

So what does the record say about Cell viability of C99 cells for CSCCC(NC(=O)C(NC(=O)C(CC(C)C)CC(O)C(NC(=O)OC(C)(C)C)C(C)O)C(C)C)C(=O)NCc1ccccc1 (centres unmarked) ?
104

So what does the record say about Cell viability of C99 cells for CSCCC(NC(=O)C(NC(=O)C(CC(C)C)CC(O)C(NC(=O)OC(C)(C)C)C(C)O)C(C)C)C(=O)NCc1ccc(F)cc1 (centres unmarked) ?
105

So what does the record say about Cell viability of C99 cells for CCCCNC(=O)C(CCSC)NC(=O)C(NC(=O)C(CC(C)C)CC(O)C(NC(=O)OC(C)(C)C)C(C)O)C(C)C (centres unmarked) ?
102
